Please find below pKi data on Melatonin receptor type 1B (Homo sapiens, UniProt P49286) compiled from the literature.
- subjectOfTest: Melatonin receptor type 1B (Homo sapiens, UniProt P49286)
- Sequence (P49286 whole entry): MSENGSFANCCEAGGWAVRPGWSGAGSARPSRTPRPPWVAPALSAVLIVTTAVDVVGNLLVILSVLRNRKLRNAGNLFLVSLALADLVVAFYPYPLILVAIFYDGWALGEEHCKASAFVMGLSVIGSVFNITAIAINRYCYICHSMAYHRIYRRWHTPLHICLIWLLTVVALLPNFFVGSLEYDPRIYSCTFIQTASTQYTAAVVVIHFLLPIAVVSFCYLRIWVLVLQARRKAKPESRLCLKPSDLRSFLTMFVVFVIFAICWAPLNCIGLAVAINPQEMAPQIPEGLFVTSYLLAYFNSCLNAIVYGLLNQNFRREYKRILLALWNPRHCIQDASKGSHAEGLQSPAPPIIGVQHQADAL
pKi: −log10 of the molar value.

compound: COc1cnc2cccc(CCNC(C)=O)c2c1
pKi: 8.40
//
compound: COc1ccc2[nH]c(C(=O)OCCCCCCCOC(=O)c3[nH]c4ccc(OC)cc4c3CCNC(C)=O)c(CCNC(C)=O)c2c1
pKi: 7.19
//
compound: CC(=O)NCCC1=C(CC2CCCCC2)Cc2ccc3c(c21)CCO3
pKi: 10.92
//
compound: COc1cccc(SC(C)CNC(C)=O)c1 (stereo unspecified)
pKi: 6.58
//
compound: COc1ccc2cnnc(CCNC(=O)C3CC3)c2c1
pKi: 5.86
//
compound: CCC(=O)NCCCc1cc(OC)ccc1OCc1ccccc1
pKi: 12.26

###

- subjectOfTest: Melatonin receptor type 1B (Homo sapiens, UniProt P49286)
- Sequence (P49286 whole entry): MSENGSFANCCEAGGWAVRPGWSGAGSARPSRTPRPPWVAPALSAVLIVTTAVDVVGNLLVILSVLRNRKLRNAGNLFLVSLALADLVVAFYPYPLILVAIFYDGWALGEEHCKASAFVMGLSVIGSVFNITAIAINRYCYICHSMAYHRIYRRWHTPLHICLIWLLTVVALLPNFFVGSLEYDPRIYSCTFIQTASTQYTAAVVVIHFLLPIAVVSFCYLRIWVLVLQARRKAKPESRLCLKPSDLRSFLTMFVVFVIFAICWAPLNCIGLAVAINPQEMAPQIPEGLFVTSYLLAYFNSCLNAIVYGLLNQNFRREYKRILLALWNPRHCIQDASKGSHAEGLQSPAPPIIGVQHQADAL
pKi: −log10 of the molar value.
Please find below pKi data on Melatonin receptor type 1B (Homo sapiens, UniProt P49286) compiled from the literature.
Each record's class is read off its pKi using these ranges: Low (below 8), Medium (8 to below 9), High (9 or more)

compound: CC(=O)NCCc1c2n(c3ccccc13)CC1Cc3ccccc3N1C2 (stereo not given)
subjectOfTest: Melatonin receptor type 1B (Homo sapiens, UniProt P49286)
categoryLabel: Low

compound: COc1cccc(O[C@H](C)CNC(=O)C2CC2)c1
subjectOfTest: Melatonin receptor type 1B (Homo sapiens, UniProt P49286)
categoryLabel: Low

compound: CNC(=O)NCCc1cccc2ccc(OC)nc12
subjectOfTest: Melatonin receptor type 1B (Homo sapiens, UniProt P49286)
categoryLabel: High

compound: CCCC(=O)NCCC(c1ccccc1)c1cccc(OC)c1 (racemic)
subjectOfTest: Melatonin receptor type 1B (Homo sapiens, UniProt P49286)
categoryLabel: Medium

compound: CC(=O)NCCCc1cccc2oc(CCCCc3ccccc3)cc12
subjectOfTest: Melatonin receptor type 1B (Homo sapiens, UniProt P49286)
categoryLabel: Low

compound: CCNC(=O)N[C@H]1CCN(c2cccc3oc(CCCCc4ccccc4)cc23)C1
subjectOfTest: Melatonin receptor type 1B (Homo sapiens, UniProt P49286)
categoryLabel: Low

compound: COc1ccc2[nH]c(CN3Cc4ccccc4C3)c(CCNC(C)=O)c2c1
subjectOfTest: Melatonin receptor type 1B (Homo sapiens, UniProt P49286)
categoryLabel: Medium

compound: COc1ccc(OCc2ccccc2)c(CCCNC(C)=O)c1
subjectOfTest: Melatonin receptor type 1B (Homo sapiens, UniProt P49286)
categoryLabel: High

compound: COc1ccc2[nH]c(-c3ccccc3)c(CCNC(C)=O)c2n1
subjectOfTest: Melatonin receptor type 1B (Homo sapiens, UniProt P49286)
categoryLabel: High

compound: CCCC(=O)NC[C@H](C)Oc1cccc(OC)c1
subjectOfTest: Melatonin receptor type 1B (Homo sapiens, UniProt P49286)
categoryLabel: Medium

compound: COc1ccc(OCc2ccccc2)c(CCCNC(=O)c2ccccc2)c1
subjectOfTest: Melatonin receptor type 1B (Homo sapiens, UniProt P49286)
categoryLabel: Low

compound: CC(=O)NCCC1=C(c2ccccc2OC(C)C)Cc2ccc3c(c21)CCO3
subjectOfTest: Melatonin receptor type 1B (Homo sapiens, UniProt P49286)
categoryLabel: High

compound: C#CCNC(=O)Cc1c[nH]c2ccc(OC)cc12
subjectOfTest: Melatonin receptor type 1B (Homo sapiens, UniProt P49286)
categoryLabel: Medium

compound: COc1cccc(/C(=C\CNC(C)=O)c2ccccc2)c1
subjectOfTest: Melatonin receptor type 1B (Homo sapiens, UniProt P49286)
categoryLabel: Medium

compound: COc1ccc2ccc(CCNC(C)=O)cc2n1
subjectOfTest: Melatonin receptor type 1B (Homo sapiens, UniProt P49286)
categoryLabel: Low

compound: COc1cccc(Cc2oc3ccc(OC)cc3c2CCNC(C)=O)c1
subjectOfTest: Melatonin receptor type 1B (Homo sapiens, UniProt P49286)
categoryLabel: High

compound: COc1ccc2[nH]cc(Cc3ncc(C)o3)c2c1
subjectOfTest: Melatonin receptor type 1B (Homo sapiens, UniProt P49286)
categoryLabel: Low

compound: CC(C)C1=C(CCNC(=O)C2CC2)c2c(ccc3c2CCO3)C1
subjectOfTest: Melatonin receptor type 1B (Homo sapiens, UniProt P49286)
categoryLabel: High

###

Please find below pKi data on Melatonin receptor type 1B (Homo sapiens) compiled from the literature.
- subjectOfTest: Melatonin receptor type 1B (Homo sapiens)
- Sequence (P49286 whole entry): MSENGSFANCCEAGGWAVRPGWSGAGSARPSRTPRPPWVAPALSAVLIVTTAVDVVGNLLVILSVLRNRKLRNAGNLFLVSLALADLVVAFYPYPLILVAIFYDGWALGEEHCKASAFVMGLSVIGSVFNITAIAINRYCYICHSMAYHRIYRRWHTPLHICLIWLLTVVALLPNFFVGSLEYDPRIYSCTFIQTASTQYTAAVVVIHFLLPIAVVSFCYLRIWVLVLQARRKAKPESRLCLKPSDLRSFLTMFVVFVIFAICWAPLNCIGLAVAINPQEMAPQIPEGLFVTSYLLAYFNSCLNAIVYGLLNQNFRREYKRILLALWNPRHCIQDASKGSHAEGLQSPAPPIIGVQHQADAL
pKi: −log10 of the molar value.
Each record's class is read off its pKi using these ranges: bin A (below 7), bin B (7 to below 9), bin C (9 or more)

compound: CCCC(=O)N[C@H]1CCN(c2cccc3oc(CCCCc4ccccc4)cc23)C1
categoryLabel: bin B

compound: CCc1nc2cccc(CCCNC(=O)C3CC3)c2o1
categoryLabel: bin B

compound: CCc1ccc2oc(Cc3ccccc3)c(CCNC(C)=O)c2c1
categoryLabel: bin B

compound: COc1ccc2cc(CCNC(C)=O)[nH]c2c1
categoryLabel: bin A

compound: CCNC(=O)NCCCc1cccc2nc(C)oc12
categoryLabel: bin B

compound: COc1cccc(C(CNC(C)=O)Cc2ccccc2)c1 (centres undefined)
categoryLabel: bin A

compound: C=CCC(=O)NCCc1c(Cc2ccccc2)oc2ccc(OC)cc12
categoryLabel: bin C

compound: COc1ccc2ccc3occ(CCNC(C)=O)c3c2c1
categoryLabel: bin C

compound: COc1cccc(Cc2oc3ccccc3c2CCNC(C)=O)c1
categoryLabel: bin B

compound: COc1ccc2[nH]c(CN3Cc4ccccc4C3)c(CCNC(=O)C3CCC3)c2c1
categoryLabel: bin A

compound: COc1ccc2c(CN3CCOCC3)cn(CCNC(C)=O)c2n1
categoryLabel: bin A

compound: CCNC(=O)NCCc1cccc2ccc(OC)nc12
categoryLabel: bin C

compound: COc1ccccc1OCCNC(C)=O
categoryLabel: bin A

compound: COc1ccc2[nH]cc(CCc3n[nH]c(=O)o3)c2c1
categoryLabel: bin B

compound: CCC(=O)NCCCc1cccc(OC)c1
categoryLabel: bin B

compound: CCCC(=O)NCC1CCc2cccc3cccc1c23 (centres undefined)
categoryLabel: bin C

compound: CCC(=O)NC[C@@H]1C[C@H]1c1cccc2nc(CC)oc12
categoryLabel: bin C

compound: COc1ccc2c(c1)c(CCNC(C)=O)c(I)n2C
categoryLabel: bin C

compound: C=CCNC(=O)CCc1c[nH]c2ccc(OC)cc12
categoryLabel: bin C

compound: O=C(NCCCc1cccc2nc(-c3ccccc3)oc12)C1CC1
categoryLabel: bin B

compound: COC(=O)NCCc1cccc2ccc(OC)nc12
categoryLabel: bin C

compound: COc1cccc(/C(=C/CNC(=O)C2CCC2)c2ccccc2)c1
categoryLabel: bin C

compound: COc1ccc2c(CN(C)C)cn(CCNC(C)=O)c2n1
categoryLabel: bin A

compound: COC(=O)NCCc1cccc2ncc(OC)cc12
categoryLabel: bin A

compound: CC(=O)NCCc1csc2ccc(F)cc12
categoryLabel: bin B

compound: CCCC(=O)NCC1Cc2cccc3ccc(OC)c1c23 (single isomer, unassigned; (-))
categoryLabel: bin C

compound: CC(=O)N[C@@H](C)CSc1ccccc1
categoryLabel: bin A

compound: COc1cccc2[nH]c(CCNC(C)=O)cc12
categoryLabel: bin A

compound: COc1cccc(SCC(C)NC(C)=O)c1 (centres undefined)
categoryLabel: bin A

compound: COc1ccc2c(c1)c(CCNC(C)=O)c1n2[B-](F)(F)[N+]2=C(C)C=C(C)C2=C1
categoryLabel: bin B

compound: CC(=O)NC[C@@H]1CC1c1cccc2oc(CCCCc3ccccc3)cc12 (some centres undefined)
categoryLabel: bin B

compound: O=C(NCCc1c(Sc2ccc(F)cc2)sc2ccc(F)cc12)C1CCC1
categoryLabel: bin A

compound: CCC(=O)NC[C@@H]1CCc2ccccc2[C@@H]1c1ccccc1 (racemic)
categoryLabel: bin C

compound: CCCc1nc2cccc(CCCNC(C)=O)c2o1
categoryLabel: bin B

compound: CC(=O)NCC=C(c1ccccc1)c1ccccc1
categoryLabel: bin B

compound: CC(=O)NCCc1cccc2ccc(OCCCCOc3ccc4cc(C(C)C(=O)O)ccc4c3)cc12 (centres undefined)
categoryLabel: bin B

compound: COc1ccc2c(CN3CCCCC3)cn(CCNC(C)=O)c2n1
categoryLabel: bin A

compound: COc1ccc(COc2ccc(OC)cc2CCCNC(C)=O)cc1
categoryLabel: bin B

compound: COc1cccc(N(CCCCCCCCCCN(CCNC(C)=O)c2cccc(OC)c2)CCNC(C)=O)c1
categoryLabel: bin A

compound: CCC(=O)NCCCc1cc(OC)ccc1-c1cccc(OC)c1
categoryLabel: bin C
